- Test system: CAMK1
- conditionDetails: concentration: 1 μM, replicates: in singlicate; n = 1;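 note: KINOMEscan kinase panel screen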
For each record, write down the corresponding %Inh.
Quote the value and follow it with the unit of measurement.

Could you share which %Inh value was measured for c1ccc(-c2n[nH]cc2Nc2ccnc3ccccc23)nc1 ?
20%

Could you share which %Inh value was measured for COC(=O)Nc1nc2cc(Oc3ccc(NC(=O)Nc4cc(C(F)(F)F)ccc4F)cn3)ccc2[nH]1.Cl.Cl ?
17%

Could you share which %Inh value was measured for Cn1cc(-c2ccc3c(c2)CCN3C(=O)Cc2cccc(F)c2)c2c(N)ncnc21 ?
79%

Could you share which %Inh value was measured for CSc1cccc2c(-c3ccncn3)c(-c3ccc(F)cc3)nn12 ?
0%

Could you share which %Inh value was measured for Oc1cc(Nc2ccnc3cc(I)ccc23)ccc1F ?
19%

Could you share which %Inh value was measured for COCCOCCOc1cc2ncc3c4ccc(C#N)cc4[nH]c3c2cc1OC ?
26%

Could you share which %Inh value was measured for Cc1ccc(C)c(NC(=O)NC2CCN(c3ccnc(Nc4ccc(F)cc4)n3)C2)c1 (centres unmarked) ?
2%

Could you share which %Inh value was measured for COc1cc2c(cc1OCCN1CCNCC1)ncc1c3ccc(C#N)cc3[nH]c21 ?
10%

Could you share which %Inh value was measured for Cn1cc(-c2ccc3c(c2)CCN3C(=O)Cc2cccc(Cl)c2)c2c(N)ncnc21 ?
26%

Could you share which %Inh value was measured for COc1ccc(CNC(=O)NC2CCN(c3ccnc(Nc4ccc(F)cc4)n3)CC2)cc1 ?
10%

Could you share which %Inh value was measured for CCn1c(-c2nonc2N)nc2c(C#CC(C)(C)O)ncc(OCCCCN)c21.O=C(O)C(F)(F)F.O=C(O)C(F)(F)F ?
31%

Could you share which %Inh value was measured for CCS(=O)(=O)c1ccc(OC)c(Nc2nccc(-c3c(-c4cccc(NC(=O)c5c(F)cccc5F)c4)nn4ncccc34)n2)c1 ?
9%

Could you share which %Inh value was measured for O=c1[nH]cc(-c2ccc(N3CCOCC3)cc2)c2sc(-c3cn[nH]c3)cc12 ?
31%

Could you share which %Inh value was measured for Cc1ccc(C(=O)Nc2ccc(Nc3ccnc4cc(-c5nccs5)ccc34)cc2O)cc1.Cl ?
13%

Could you share which %Inh value was measured for COc1cccc(NC(=O)NC2CCN(c3ccnc(Nc4cc(OC)c(OC)c(OC)c4)n3)C2)c1 (centres unmarked) ?
26%

Could you share which %Inh value was measured for O=C(NC1CCN(c2ccnc(Nc3ccc(F)cc3)n2)C1)c1cc2ccccc2s1 (centres unmarked) ?
26%

Could you share which %Inh value was measured for NCCCC(NC(=O)c1cc(Br)c(-c2ccnc3[nH]ccc23)s1)c1ccccc1.O=C(O)C(F)(F)F.O=C(O)C(F)(F)F (centres unmarked) ?
13%

----------
- Test system: TGFBR1
- conditionDetails: concentration: 1 μM, replicates: in singlicate; n = 1
For each record, write down the corresponding %Inh.
Quick reminder: number only, in %, skip the unit.

Could you share which %Inh value was measured for CN1CCN(CCCNc2nccc(-c3c(-c4ccc(F)cc4)nn4cc(C(F)(F)F)ccc34)n2)CC1 [GW621581] ?
72

Could you share which %Inh value was measured for COc1cccc(C2=C(Nc3ccc(Cl)c(C(=O)O)c3)C(=O)NC2=O)c1 [SB-390769] ?
0

Could you share which %Inh value was measured for COc1cc(Nc2nccc(N3CCC(NC(=O)Nc4cccc(C(C)=O)c4)C3)n2)cc(OC)c1OC (centres unmarked) [GSK1379753] ?
0

Could you share which %Inh value was measured for Nc1n[nH]c2cnc(-c3ccccc3)cc12 [SB-642124] ?
27

Could you share which %Inh value was measured for O=C(Nc1ccccc1F)NC1CCN(c2ccnc(Nc3ccc(F)cc3)n2)CC1 [GSK1379800] ?
36

Could you share which %Inh value was measured for COc1ccc(Nc2nccc(NCCNC(=O)c3cc4ccccc4s3)n2)cc1 [GSK1379896] ?
0

Could you share which %Inh value was measured for COC(=O)Nc1nc2ccc(Oc3ccc(NC(=O)Nc4cc(C(F)(F)F)ccc4F)cc3)cc2n1C.Cl [GW692089] ?
7

Could you share which %Inh value was measured for CCn1c(-c2nonc2N)nc2c(C#CC(C)(C)O)nc(OC[C@H](N)c3ccccc3)cc21 [GSK943949] ?
9

Could you share which %Inh value was measured for Cn1cc(-c2ccc3c(c2)CCN3C(=O)Cc2cccc(Cl)c2)c2c(N)ncnc21 [GSK2606590] ?
0

Could you share which %Inh value was measured for COCCOCCOc1cc2ncc3c4ccc(C#N)cc4[nH]c3c2cc1OC ?
0

Could you share which %Inh value was measured for CN(C)S(=O)(=O)c1cc(-c2ccc3nccc(-c4cccc(S(N)(=O)=O)c4)c3c2)cnc1N [GSK1669921] ?
0

Could you share which %Inh value was measured for O=C(Nc1cccc(-c2nn3ncccc3c2-c2ccnc(Nc3ccccc3)n2)c1)c1c(F)cccc1F [GSK198271] ?
0

Could you share which %Inh value was measured for COc1cc(Nc2ncc3c(C)nc(-c4cc5ccccc5[nH]4)n3n2)cc(OC)c1OC [GW869516] ?
14

Could you share which %Inh value was measured for CNC(=O)c1ccccc1Nc1nc(Nc2ccc(N3CCOCC3)cc2)ncc1Cl.Cl [GSK1576028] ?
93

Could you share which %Inh value was measured for CSc1cccc2c(-c3ccncn3)c(-c3ccc(F)cc3)nn12 [GW514786] ?
28

Could you share which %Inh value was measured for O=C(Nc1cccc(-c2nn3ccccc3c2-c2ccnc(Nc3cccc(C(F)(F)F)c3)n2)c1)c1c(F)cccc1F [GSK292658] ?
6

Could you share which %Inh value was measured for CN1CCN(Cc2cccc(-c3ccc4c(Nc5ccc(Oc6ccccc6)cc5)ccnc4c3)c2)CC1 [GW578342] ?
0

----------
- Test system: CDC2L5
- Construct: gene CDK13
- conditionDetails: concentration: 1 μM, replicates: in singlicate; n = 1
propertyMeasured: %Inh
Quote the value and follow it with the unit of measurement.

Could you share which %Inh value was measured for COc1cc2c(cc1OCCN1CCNCC1)ncc1c3ccc(C#N)cc3[nH]c21 ?
8%

Could you share which %Inh value was measured for CNC(=O)c1ccccc1Nc1nc(Nc2ccc(N3CCOCC3)cc2)ncc1Cl.Cl ?
0%

Could you share which %Inh value was measured for COc1ccc(Nc2nccc(NCCNC(=O)c3cc4ccccc4s3)n2)cc1 ?
0%

Could you share which %Inh value was measured for CCn1c(-c2nonc2N)nc2c(C#CC(C)(C)O)ncc(OCCCCN)c21.O=C(O)C(F)(F)F.O=C(O)C(F)(F)F ?
0%

Could you share which %Inh value was measured for CCc1ccc(-c2ccc3c(c2)-c2c(cnn2C)S(=O)(=O)N3C)cc1 ?
20%

Could you share which %Inh value was measured for COc1cccc(NC(=O)NC2CCN(c3ccnc(Nc4cc(OC)c(OC)c(OC)c4)n3)C2)c1 (centres unmarked) ?
0%

Could you share which %Inh value was measured for CN(c1ccc(NC(=O)Nc2cc(C(F)(F)F)ccc2F)cc1)c1ccnc(Nc2ccc(S(N)(=O)=O)cc2)n1 ?
83%

Could you share which %Inh value was measured for O=C(Nc1cccc(-c2nn3ncccc3c2-c2ccnc(Nc3ccccc3)n2)c1)c1c(F)cccc1F ?
0%

----------
For each record, write down the corresponding %Inh.
- System: NDR2
- conditionDetails: concentration: 1 μM, replicates: in singlicate; n = 1
Quote the value and follow it with the unit of measurement.

Could you share which %Inh value was measured for COc1cc(Nc2nccc(-c3c(-c4cccc(NC(=O)c5c(F)cccc5F)c4)nn4ccccc34)n2)cc(OC)c1OC ?
0%

Could you share which %Inh value was measured for COc1cc2c(cc1OCCN1CCNCC1)ncc1c3ccc(C#N)cc3[nH]c21 ?
0%

Could you share which %Inh value was measured for COc1ccc(Nc2nccc(NCCNC(=O)c3cc4ccccc4s3)n2)cc1 ?
0%

Could you share which %Inh value was measured for COc1cc(Nc2nccc(N3CCC(NC(=O)Nc4cccc(C(C)=O)c4)C3)n2)cc(OC)c1OC (centres unmarked) ?
0%

Could you share which %Inh value was measured for C[C@@H](Oc1cc(-n2cnc3cc(-c4ccnc(NCCS(C)(=O)=O)c4)ccc32)sc1C(N)=O)c1ccccc1Cl ?
0%

Could you share which %Inh value was measured for COc1cc(Nc2nccc(N3CCC(NC(=O)c4cc5ccccc5s4)C3)n2)cc(OC)c1OC (centres unmarked) ?
0%

Could you share which %Inh value was measured for CC(=O)Nc1nc2cnc(Nc3cc(NC(=O)c4cccc(C5(C#N)CC5)c4Cl)ccc3C)nc2s1 ?
0%

Could you share which %Inh value was measured for c1ccc(-c2cnc3nccnn23)cc1 ?
0%

Could you share which %Inh value was measured for COC(=O)Nc1nc2ccc(Oc3ccc(NC(=O)Nc4cc(C(F)(F)F)ccc4F)cc3)cc2n1C.Cl ?
45%

Could you share which %Inh value was measured for Clc1ccc(-c2nn3ncccc3c2-c2ccnc(Nc3ccc4c(c3)OCCO4)n2)cc1 ?
8%

Could you share which %Inh value was measured for Cc1occc1-c1ncc(OC[C@@H](N)Cc2c[nH]c3ccccc23)cc1-c1ccc2[nH]nc(C)c2c1.O=C(O)C(F)(F)F ?
0%

Could you share which %Inh value was measured for COc1cccc(-c2ccc3c(NC(=O)C4CC4)n[nH]c3n2)c1 ?
16%

Could you share which %Inh value was measured for Cl.Cl.NCC(NC(=O)c1cc(-c2ccccc2)c(-c2ccnc3[nH]ccc23)s1)c1ccccc1 (centres unmarked) ?
16%

Could you share which %Inh value was measured for Cc1cccc(NC(=O)Nc2ccc(Oc3ncnc4ccn(C)c34)cc2)c1 ?
0%
